Hey, just so you know, these numbers are from ChEMBL document CHEMBL3137667.

Reported Hepatotoxicity (steatosis) is given for each of the following compounds.
Conditions: human
I only need the number, thanks.

Example cases with answers are listed next.
Lookup: If you can, please state the reported Hepatotoxicity (steatosis) value of COc1ccc(C(CN(C)C)C2(O)CCCCC2)cc1 (stereo not drawn) .
Found: 0

Lookup: If you can, please state the reported Hepatotoxicity (steatosis) value of O=C(OCC(COC(=O)c1cccnc1)(COC(=O)c1cccnc1)COC(=O)c1cccnc1)c1cccnc1 .
Found: 0

// switching to the query compound
Lookup: If you can, please state the reported Hepatotoxicity (steatosis) value of CN1CCN2c3ncccc3Cc3ccccc3C2C1 (stereo not drawn) .
Found: 1

###

Test: Highest frequency of moderate liver toxicity observed during clinical trials, expressed as a percentage. [column '% BIOL' in source]
Conditions: human
reported_endpoint: Hepatotoxicity (moderate) (%)
Express it in %; write the number only.

Example cases with answers are listed next.
Lookup: If you can, please state the reported Hepatotoxicity (moderate) value of CN1c2c(oc(=O)n(-c3ccccn3)c2=O)-c2ccccc2S1(=O)=O .
Found: 0

Lookup: If you can, please state the reported Hepatotoxicity (moderate) value of C1CCC(C(CC2CCCCN2)C2CCCCC2)CC1 (stereo unspecified) .
Found: 30

Lookup: If you can, please state the reported Hepatotoxicity (moderate) value of CC(C)NCC(O)COc1cccc2ccccc12 (stereo unspecified) .
Found: 10

Lookup: If you can, please state the reported Hepatotoxicity (moderate) value of COc1cnc(NS(=O)(=O)c2ccc(N)cc2)nc1 .
Found: 0

Lookup: If you can, please state the reported Hepatotoxicity (moderate) value of CC(C)N(CCC(C(N)=O)(c1ccccc1)c1ccccn1)C(C)C (stereo unspecified) [DISOPYRAMIDE] .
Found: 0.3

Lookup: If you can, please state the reported Hepatotoxicity (moderate) value of [N-]=[N+]=O [NITROUS OXIDE] .
Found: 0

// switching to the query compound
Lookup: If you can, please state the reported Hepatotoxicity (moderate) value of NC(CO)C(=O)NNCc1ccc(O)c(O)c1O (stereo unspecified) [BENSERAZIDE] .
Found: 0
